These entries and their values trace back to patent US20230042936A1.

# study-system: CDK12wt/CycK (Homo sapiens, UniProt Q9NYV4)
# Sequence (Q9NYV4 whole entry): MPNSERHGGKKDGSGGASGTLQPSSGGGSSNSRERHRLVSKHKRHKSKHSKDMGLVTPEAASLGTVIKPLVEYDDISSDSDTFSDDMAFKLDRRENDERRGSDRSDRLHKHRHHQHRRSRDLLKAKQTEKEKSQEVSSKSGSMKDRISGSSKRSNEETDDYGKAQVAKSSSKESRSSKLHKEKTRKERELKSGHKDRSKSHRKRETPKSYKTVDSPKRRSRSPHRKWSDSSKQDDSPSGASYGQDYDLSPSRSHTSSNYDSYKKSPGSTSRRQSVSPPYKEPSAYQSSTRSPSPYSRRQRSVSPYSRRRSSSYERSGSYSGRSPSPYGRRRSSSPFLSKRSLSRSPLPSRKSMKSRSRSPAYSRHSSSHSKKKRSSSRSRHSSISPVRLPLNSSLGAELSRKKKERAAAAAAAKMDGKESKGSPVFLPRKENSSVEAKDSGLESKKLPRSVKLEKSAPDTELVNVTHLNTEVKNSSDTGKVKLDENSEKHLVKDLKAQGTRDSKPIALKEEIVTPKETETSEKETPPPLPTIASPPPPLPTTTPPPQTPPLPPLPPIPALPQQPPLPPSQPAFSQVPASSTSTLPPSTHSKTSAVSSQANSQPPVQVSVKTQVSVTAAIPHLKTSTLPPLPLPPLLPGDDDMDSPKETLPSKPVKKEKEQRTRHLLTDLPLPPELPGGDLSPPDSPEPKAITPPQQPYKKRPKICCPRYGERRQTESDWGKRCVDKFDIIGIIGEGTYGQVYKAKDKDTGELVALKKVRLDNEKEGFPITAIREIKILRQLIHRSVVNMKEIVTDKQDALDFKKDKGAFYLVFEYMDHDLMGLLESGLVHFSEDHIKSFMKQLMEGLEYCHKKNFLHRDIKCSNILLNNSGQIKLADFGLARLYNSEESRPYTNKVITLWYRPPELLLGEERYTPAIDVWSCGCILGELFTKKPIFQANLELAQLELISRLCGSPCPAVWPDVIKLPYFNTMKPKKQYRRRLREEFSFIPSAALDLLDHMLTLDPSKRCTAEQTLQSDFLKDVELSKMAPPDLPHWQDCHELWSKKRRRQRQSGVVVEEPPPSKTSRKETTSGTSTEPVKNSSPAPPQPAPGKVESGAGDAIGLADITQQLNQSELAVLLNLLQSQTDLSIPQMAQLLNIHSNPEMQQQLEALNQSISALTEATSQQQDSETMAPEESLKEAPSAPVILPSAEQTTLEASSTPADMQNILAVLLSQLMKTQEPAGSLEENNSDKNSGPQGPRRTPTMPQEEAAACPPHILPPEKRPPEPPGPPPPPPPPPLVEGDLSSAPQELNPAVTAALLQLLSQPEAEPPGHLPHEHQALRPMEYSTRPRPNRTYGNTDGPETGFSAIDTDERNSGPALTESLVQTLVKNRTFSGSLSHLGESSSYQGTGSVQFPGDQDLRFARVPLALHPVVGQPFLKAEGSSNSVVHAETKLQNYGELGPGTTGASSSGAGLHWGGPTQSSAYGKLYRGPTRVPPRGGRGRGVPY
# Sequence (O75909 whole entry partner): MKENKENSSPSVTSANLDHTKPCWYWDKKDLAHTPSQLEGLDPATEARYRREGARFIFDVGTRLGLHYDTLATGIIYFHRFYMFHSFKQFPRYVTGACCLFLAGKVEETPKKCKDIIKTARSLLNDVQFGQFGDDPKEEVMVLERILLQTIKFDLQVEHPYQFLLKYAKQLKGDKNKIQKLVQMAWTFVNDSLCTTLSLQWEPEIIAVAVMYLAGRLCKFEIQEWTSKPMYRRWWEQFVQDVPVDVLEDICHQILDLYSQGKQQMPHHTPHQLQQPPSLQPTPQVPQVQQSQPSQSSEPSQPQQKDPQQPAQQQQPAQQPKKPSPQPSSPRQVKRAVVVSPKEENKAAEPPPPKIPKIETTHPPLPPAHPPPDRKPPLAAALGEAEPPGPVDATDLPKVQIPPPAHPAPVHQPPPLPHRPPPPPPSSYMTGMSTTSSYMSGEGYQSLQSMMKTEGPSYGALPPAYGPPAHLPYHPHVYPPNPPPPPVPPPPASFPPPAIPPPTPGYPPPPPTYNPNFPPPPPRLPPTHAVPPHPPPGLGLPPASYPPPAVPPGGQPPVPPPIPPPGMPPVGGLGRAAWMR
# experiment: Kinase profiling
# particulars: 10 semi-logarithmic dilutions from 50 μM, singlicate
reported-endpoint: IC50
Could you give the number and then its unit, please?

> print(dat)
                                   compound  reported.endpoint   result
1  CC(=O)c1c(C)c2cnc(Nc3ccc(N4CCC(CCCO)CC4)cc3)nc2n([C@@H]2CC3CCC2C3)c1=O (stereo partly shown)               IC50  28.1 µM
2  O=c1ccc2cnc(Nc3ccc(N4CCC(CCCO)CC4)cc3)nc2n1C1CC2CCC1C2 (stereo not shown) [PD-0183812, reference compound]               IC50  3.16 µM
3  O=c1ccc2cnc(Nc3ccc(N4CCC(CCCO)CC4)cc3F)nc2n1[C@@H]1CC2CCC1C2 (stereo partly shown)               IC50  28.4 µM

Kindly consider the entry below.
Query block: Name the reported IC50 value associated with the compound CN(C)C(=O)c1cc2cnc(Nc3ccc(N4CCNCC4)cn3)nc2n1C1CCCC1 [Ribociclib, reference compound]
Result block: 0.495 µM
